# Test system: S. aureus N315
# protocol_text: MIC, multi-resistant clinical isolate
# Format: cell-based, Staphylococcus aureus
# conditions: Staphylococcus aureus, N315, read-out: Antimicrobial activity (MIC)
assay_metric: MIC (µg/mL)
Numbers only, in µg/mL.

# example entries with known answers
# item_smiles, value_unit, value_measured
records = [
    ("CC(C)(C)c1cc(CC2(Cc3cc(C(C)(C)C)cc(C(C)(C)C)c3)C(=O)N(CCCCN)C(=O)N(CCCCN)C2=O)cc(C(C)(C)C)c1", "µg/mL", 2),
    ("N=C(N)NCCCCN1C(=O)N(CCCCNC(=N)N)C(=O)C(Cc2ccc(F)c3ccccc23)(Cc2ccc(F)c3ccccc23)C1=O", "µg/mL", 2),
    ("N=C(N)NCCCCN1C(=O)N(CCCCNC(=N)N)C(=O)C(Cc2ccc3ccccc3c2)(Cc2ccc3ccccc3c2)C1=O", "µg/mL", 8),
    ("CC(C)(C)c1ccc(CC2(Cc3ccc(C(C)(C)C)cc3)C(=O)N(CCCCN)C(=O)N(CCCCN)C2=O)cc1", "µg/mL", 8),
    ("NCCCCN1C(=O)N(CCCCN)C(=O)C(Cc2ccc(F)c3ccccc23)(Cc2ccc(F)c3ccccc23)C1=O", "µg/mL", 8),
]

State the recorded MIC for every item in the following list.
1. N=C(N)NCCCCN1C(=O)N(CCCCNC(=N)N)C(=O)C(Cc2cc(Br)cc(Br)c2)(Cc2cc(Br)cc(Br)c2)C1=O
2. NCCCCN1C(=O)N(CCCCN)C(=O)C(Cc2ccc3ccccc3c2)(Cc2ccc3ccccc3c2)C1=O
3. NCCCCN1C(=O)N(CCCCN)C(=O)C(Cc2cc(C(F)(F)F)cc(C(F)(F)F)c2)(Cc2cc(C(F)(F)F)cc(C(F)(F)F)c2)C1=O
4. CC(C)(C)c1cc(CC2(Cc3cc(C(C)(C)C)cc(C(C)(C)C)c3)C(=O)N(CCCCNC(=N)N)C(=O)N(CCCCNC(=N)N)C2=O)cc(C(C)(C)C)c1
5. CC(C)(C)c1ccc(CC2(Cc3ccc(C(C)(C)C)cc3)C(=O)N(CCCCNC(=N)N)C(=O)N(CCCCNC(=N)N)C2=O)cc1

Resp:
[2, 8, 16, 4, 2]

Req: Field request: MIC | item: NCCCCN1C(=O)N(CCCCN)C(=O)C(Cc2cc(Br)cc(Br)c2)(Cc2cc(Br)cc(Br)c2)C1=O
Resp: 4

###

Give MIC for every item shown.
# Tested on: E. faecium 50673722
# protocol_text: MIC, multi-resistant clinical isolate
# Type: cell-based, Enterococcus faecium
# conditions: Enterococcus faecium, read-out: Antimicrobial activity (MIC)
# Description: Working solutions of the test derivatives were prepared with up to 100% DMSO and stored at −20° C. If necessary, the solutions were heated to 40-80° C. before testing to facilitate complete dissolution. Double-distilled water was used in all dilutions prepared. […]
Give bare numbers, in µg/mL.

State the recorded MIC for every item in the following list.
1. CC(C)(C)c1ccc(CC2(Cc3ccc(C(C)(C)C)cc3)C(=O)N(CCCCN)C(=O)N(CCCCN)C2=O)cc1 [Compound 7(i)]
2. CC(C)(C)c1ccc(CC2(Cc3ccc(C(C)(C)C)cc3)C(=O)N(CCCCNC(=N)N)C(=O)N(CCCCNC(=N)N)C2=O)cc1 [Compound 8(i)]
3. CC(C)(C)c1cc(CC2(Cc3cc(C(C)(C)C)cc(C(C)(C)C)c3)C(=O)N(CCCCNC(=N)N)C(=O)N(CCCCNC(=N)N)C2=O)cc(C(C)(C)C)c1 [8(iii)]
4. NCCCCN1C(=O)N(CCCCN)C(=O)C(Cc2ccc3ccccc3c2)(Cc2ccc3ccccc3c2)C1=O [7(iv)]

Resp:
[8, 2, 2, 16]

###

# protocol_text: Determination of haemolytic activity
# Type: cell-based
# conditions: human red blood cells (washed, from heparinized fresh blood); human RBCs, 1 h, 37° C.; read-out: RBC: haemolytic activity against human RBCs (EC50)
assay_metric: EC50 at 1 h

# example entries with known answers
# item_smiles, EC50 at 1 h
measured = [
    ("NCCCCN1C(=O)N(CCCCN)C(=O)C(Cc2cc(C(F)(F)F)cc(C(F)(F)F)c2)(Cc2cc(C(F)(F)F)cc(C(F)(F)F)c2)C1=O", "183 µg/mL"),
    ("CC(C)(C)c1cc(CC2(Cc3cc(C(C)(C)C)cc(C(C)(C)C)c3)C(=O)N(CCCCNC(=N)N)C(=O)N(CCCCNC(=N)N)C2=O)cc(C(C)(C)C)c1", "< 4 µg/mL"),
    ("NCCCCN1C(=O)N(CCCCN)C(=O)C(Cc2ccc(F)c3ccccc23)(Cc2ccc(F)c3ccccc23)C1=O", "160 µg/mL"),
    ("NCCCCN1C(=O)N(CCCCN)C(=O)C(Cc2cc(Br)cc(Br)c2)(Cc2cc(Br)cc(Br)c2)C1=O", "83 µg/mL"),
    ("CC(C)(C)c1cc(CC2(Cc3cc(C(C)(C)C)cc(C(C)(C)C)c3)C(=O)N(CCCCN)C(=O)N(CCCCN)C2=O)cc(C(C)(C)C)c1", "< 4 µg/mL"),
    ("CC(C)(C)c1ccc(CC2(Cc3ccc(C(C)(C)C)cc3)C(=O)N(CCCCN)C(=O)N(CCCCN)C2=O)cc1", "143 µg/mL"),
    ("NCCCCN1C(=O)N(CCCCN)C(=O)C(Cc2ccc3ccccc3c2)(Cc2ccc3ccccc3c2)C1=O", "243 µg/mL"),
    ("CC(C)(C)c1ccc(CC2(Cc3ccc(C(C)(C)C)cc3)C(=O)N(CCCCNC(=N)N)C(=O)N(CCCCNC(=N)N)C2=O)cc1", "77 µg/mL"),
]

State the recorded EC50 at 1 h for every item in the following list.
1. N=C(N)NCCCCN1C(=O)N(CCCCNC(=N)N)C(=O)C(Cc2cc(Br)cc(Br)c2)(Cc2cc(Br)cc(Br)c2)C1=O
2. N=C(N)NCCCCN1C(=O)N(CCCCNC(=N)N)C(=O)C(Cc2ccc3ccccc3c2)(Cc2ccc3ccccc3c2)C1=O
3. N=C(N)NCCCCN1C(=O)N(CCCCNC(=N)N)C(=O)C(Cc2ccc(F)c3ccccc23)(Cc2ccc(F)c3ccccc23)C1=O

Resp:
1. 56 µg/mL
2. 133 µg/mL
3. 88 µg/mL

###

# Test system: human metastatic melanoma (A2058, ATCC CRL-11147) cells
# protocol_text: Anti-cancer activity against A2058 cells
# Type: cell-based
# conditions: A2058, read-out: Anti-cancer IC50
# Method: Cytotoxicity of the test compounds was evaluated after 72 hour exposure to human metastatic melanoma (A2058, ATCC CRL-11147) cells. […] Absorbance was measured at 485 nm in a DTX 880 Multimode Detector. Results were calculated as % survival compared to negative (assay media) and positive (Triton X-100; Sigma-Aldrich) controls.
Give IC50 for every item shown.
Answers are plain numbers, in µg/mL.

# compound, test_system, value_measured
measured = [
    ("N=C(N)NCCCCN1C(=O)N(CCCCNC(=N)N)C(=O)C(Cc2cc(Br)cc(Br)c2)(Cc2cc(Br)cc(Br)c2)C1=O [8(ii)]", "human metastatic melanoma (A2058, ATCC CRL-11147) cells", 2),
    ("CC(C)(C)c1cc(CC2(Cc3cc(C(C)(C)C)cc(C(C)(C)C)c3)C(=O)N(CCCCNC(=N)N)C(=O)N(CCCCNC(=N)N)C2=O)cc(C(C)(C)C)c1 [8(iii)]", "human metastatic melanoma (A2058, ATCC CRL-11147) cells", 33),
]

State the recorded IC50 for every item in the following list.
1. N=C(N)NCCCCN1C(=O)N(CCCCNC(=N)N)C(=O)C(Cc2ccc(F)c3ccccc23)(Cc2ccc(F)c3ccccc23)C1=O [8(v)]
2. N=C(N)NCCCCN1C(=O)N(CCCCNC(=N)N)C(=O)C(Cc2ccc3ccccc3c2)(Cc2ccc3ccccc3c2)C1=O [8(iv)]
3. NCCCCN1C(=O)N(CCCCN)C(=O)C(Cc2cc(Br)cc(Br)c2)(Cc2cc(Br)cc(Br)c2)C1=O [7(ii)]

Resp:
8
8
1

###

# System: P. aeruginosa K44-24
# protocol_text: MIC, multi-resistant clinical isolate
# Type: cell-based, Pseudomonas aeruginosa
# conditions: RBC EC50 / MIC
assay_metric: selectivity index (EC50/MIC)

# example entries with known answers
# item_smiles, test_system, selectivity index (EC50/MIC)
records = [
    ("N=C(N)NCCCCN1C(=O)N(CCCCNC(=N)N)C(=O)C(Cc2ccc(F)c3ccccc23)(Cc2ccc(F)c3ccccc23)C1=O", "P. aeruginosa K44-24", "(6)"),
    ("N=C(N)NCCCCN1C(=O)N(CCCCNC(=N)N)C(=O)C(Cc2cc(Br)cc(Br)c2)(Cc2cc(Br)cc(Br)c2)C1=O", "P. aeruginosa K44-24", "(7)"),
    ("N=C(N)NCCCCN1C(=O)N(CCCCNC(=N)N)C(=O)C(Cc2ccc3ccccc3c2)(Cc2ccc3ccccc3c2)C1=O", "P. aeruginosa K44-24", "(4)"),
    ("NCCCCN1C(=O)N(CCCCN)C(=O)C(Cc2ccc(F)c3ccccc23)(Cc2ccc(F)c3ccccc23)C1=O", "P. aeruginosa K44-24", "(5)"),
    ("NCCCCN1C(=O)N(CCCCN)C(=O)C(Cc2cc(Br)cc(Br)c2)(Cc2cc(Br)cc(Br)c2)C1=O", "P. aeruginosa K44-24", "(5)"),
    ("CC(C)(C)c1ccc(CC2(Cc3ccc(C(C)(C)C)cc3)C(=O)N(CCCCNC(=N)N)C(=O)N(CCCCNC(=N)N)C2=O)cc1", "P. aeruginosa K44-24", "(5)"),
]

For the next question, use this molecule.
Req: Field request: selectivity index (EC50/MIC) | item: NCCCCN1C(=O)N(CCCCN)C(=O)C(Cc2cc(C(F)(F)F)cc(C(F)(F)F)c2)(Cc2cc(C(F)(F)F)cc(C(F)(F)F)c2)C1=O
Resp: (6)
